Measured values drawn from paper PMC10017709 for this set.

- Study Target: CB2R-I110^3.29L (Homo sapiens, UniProt P34972, I110L)
- Sequence (P34972 whole entry I110L): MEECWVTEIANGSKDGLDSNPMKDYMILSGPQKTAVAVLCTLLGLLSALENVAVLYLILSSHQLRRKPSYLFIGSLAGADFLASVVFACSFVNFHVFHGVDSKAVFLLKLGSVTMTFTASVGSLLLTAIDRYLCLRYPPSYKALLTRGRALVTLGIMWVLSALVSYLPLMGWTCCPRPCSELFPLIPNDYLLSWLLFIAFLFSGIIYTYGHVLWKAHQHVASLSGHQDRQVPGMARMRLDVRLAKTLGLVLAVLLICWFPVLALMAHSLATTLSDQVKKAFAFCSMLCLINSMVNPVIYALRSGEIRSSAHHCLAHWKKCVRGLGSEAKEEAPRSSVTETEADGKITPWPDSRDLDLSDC
- Assay Method Text: [35S]GTPγS assay, CB2R I110L mutant
- Assay Setup: I110L mutant, HEK293T membranes
pEC50: −log10 of the molar value.
Endpoint: pEC50

| Structure Notation | Endpoint | Measurement |
| --- | --- | --- |
| CC(C)CN1C(=O)CN(Cc2ccc(-c3ccc(F)c(CNC4CCOCC4)n3)cc2)C1=O | pEC50 | 7.80 |

----------
- Study Target: CB1R D266ECL2E (Homo sapiens, UniProt P21554, D266E)
- Construct: The WT CB1R and CB2R genes were subcloned into vector pcDNA3.1; HA signal peptide (N); expressed in transfected cells; host or cells: HEK293T (transient, membrane homogenates)
- Sequence (P21554 whole entry D266E): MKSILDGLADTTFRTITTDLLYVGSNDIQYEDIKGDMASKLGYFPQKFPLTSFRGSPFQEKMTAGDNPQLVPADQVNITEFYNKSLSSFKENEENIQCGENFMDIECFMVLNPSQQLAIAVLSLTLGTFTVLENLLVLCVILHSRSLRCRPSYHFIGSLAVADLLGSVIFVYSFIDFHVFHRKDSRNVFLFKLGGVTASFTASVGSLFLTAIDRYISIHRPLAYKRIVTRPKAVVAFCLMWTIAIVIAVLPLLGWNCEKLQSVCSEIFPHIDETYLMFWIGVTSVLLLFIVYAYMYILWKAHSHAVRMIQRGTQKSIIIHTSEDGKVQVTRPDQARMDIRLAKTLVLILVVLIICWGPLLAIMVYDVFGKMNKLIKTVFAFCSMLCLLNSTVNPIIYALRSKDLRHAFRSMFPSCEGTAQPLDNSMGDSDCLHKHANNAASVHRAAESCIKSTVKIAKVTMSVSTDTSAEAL
- Assay Method Text: [35S]GTPγS assay, CB1R D266E mutant
- Assay type: biochemical
- Assay Setup: CB1R D266E; 10 µM agonist
# Agonist-mediated activation per record follows
Endpoint: Agonist-mediated activation (fold over its basal)

| Structure Notation | Measurement |
| --- | --- |
| CCCCC/C=C\C/C=C\C/C=C\C/C=C\CCCC(=O)OC(CO)CO | 1.5 |
| CC(C)CN1C(=O)CN(Cc2ccc(-c3ccc(F)c(CNC4CCOCC4)n3)cc2)C1=O | 1.1 |
| CCCCCCC(C)(C)c1cc(OC)c([C@@H]2C=C(CO)[C@@H]3C[C@H]2C3(C)C)c(OC)c1 | 0.8 |
| CC(C)(C)[C@@H](CO)NC(=O)c1nn(-c2c[n+]([O-])ccn2)c2c1C[C@@H]1C[C@H]21 | 0.9 |
